- testProtocol: Acute oral toxicity in mice
- Format: in vivo
- conditionContext: both sexes, mouse, in vivo, po, mice, oral single dose; read-out: LD50 95% confidence interval
experimentalReadout: LD50 at 2 weeks

>>> result("C=C[C@]1(C)C[C@@H](OC(=O)CN2CCN(C(=O)CN3CCN(c4ccc([N+](=O)[O-])cc4)CC3)CC2)[C@]2(C)[C@H](C)CC[C@]3(CCC(=O)[C@H]32)[C@@H](C)[C@@H]1O [NPDM]")
"3010 to 4710 mg/kg"

---

- testProtocol: Pharmacokinetic study in mice, plasma LC-MS/MS
- Format: in vivo
- conditionContext: female, mouse, plasma, iv, 10 mg/kg i.v., non-compartmental
experimentalReadout: half-life (min)

>>> readoutnumber("C=C[C@]1(C)C[C@@H](OC(=O)CN2CCN(C(=O)CN3CCN(c4ccc([N+](=O)[O-])cc4)CC3)CC2)[C@]2(C)[C@H](C)CC[C@]3(CCC(=O)[C@H]32)[C@@H](C)[C@@H]1O")
13.2
